test system: MRCKA; conditions: concentration: 1 μM, replicates: in singlicate; n = 1;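 further: KINOMEscan kinase panel screen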
Kindly state %Inh for each of the entries shown.
# number only, unit % dropped from output

Q. May I ask what %Inh has been recorded for COc1ccc(Nc2nccc(N3CCC(NC(=O)C(C)c4ccc(Cl)cc4)C3)n2)cc1 (centres unmarked) ?
A. 15

Q. Do the same for "Cc1ccccc1-c1cc(-c2c[nH]nc2-c2ccccn2)ccn1" please
A. 0

Q. Do the same for "COc1cc2ncnc(Nc3cccc(Br)c3)c2cc1OC.Cl" please
A. 8

Q. Do the same for "Cc1ccc(NC(=O)c2ccc(Cl)cc2)cc1-c1ccc(C(=O)Nc2ccncc2)cc1" please
A. 9

Q. Do the same for "O=C(Nc1n[nH]c2nc(-c3cccs3)c(Br)cc12)C1CC1" please
A. 16

Q. Do the same for "COc1ccc(CSc2nnc(-c3ccc4c(c3)CCO4)o2)cc1" please
A. 0

Q. Do the same for COc1ccc(Nc2nccc(N3CCC(NC(=O)c4cc5ccccc5s4)C3)n2)cc1 (centres unmarked) please
A. 12

Q. Do the same for "CS(=O)(=O)Cc1ccc(Nc2nccc(-c3c(-c4cccc(NC(=O)C5CCCCC5)c4)nn4ncccc34)n2)cc1" please
A. 0

Q. Do the same for "CC[C@@H]1CO[C@H](C(=O)Nc2ccccc2)CN1c1cc(-c2ccc3c(N)n[nH]c3c2)nc(NC)n1" please
A. 14

Q. Do the same for "COc1ccc(CSc2nnc(-c3ccc4ncsc4c3)o2)cc1C(F)(F)F" please
A. 0

Q. Do the same for "FC(F)(F)c1ccccc1-c1cc(-c2c[nH]nc2-c2ccccn2)ccn1" please
A. 0

Q. Do the same for "CNCc1ccc2nc(NC(=O)c3ccc(C(C)(C)C)cc3)cn2c1" please
A. 6

Q. Do the same for "Nc1ncnc2occ(-c3ccc4c(c3)CCN4C(=O)Cc3cc(F)ccc3F)c12" please
A. 22

Q. Do the same for "Cc1c(Cn2c(C)c(C)n3c(=O)cc(N4CCOCC4)nc23)cccc1C(F)(F)F" please
A. 0
